Measured values drawn from patent US6200993A for this set.

target: GST-Met 248 PDE 4a (purified GST fusion protein of the human recombinant phosphodiesterase IVa (met-248)) (Homo sapiens); construct: phosphodiesterase IVa (met-248); made in house; host or cells: Sf-9 insect cells (baculovirus); test: SPA Based PDE Activity Assay (hydrolysis of cAMP to AMP); type: biochemical; conditions: 100 nM cAMP; baculovirus/Sf-9 expressed enzyme; ten point titration
Sequence (P27815 248-886 limits assumed): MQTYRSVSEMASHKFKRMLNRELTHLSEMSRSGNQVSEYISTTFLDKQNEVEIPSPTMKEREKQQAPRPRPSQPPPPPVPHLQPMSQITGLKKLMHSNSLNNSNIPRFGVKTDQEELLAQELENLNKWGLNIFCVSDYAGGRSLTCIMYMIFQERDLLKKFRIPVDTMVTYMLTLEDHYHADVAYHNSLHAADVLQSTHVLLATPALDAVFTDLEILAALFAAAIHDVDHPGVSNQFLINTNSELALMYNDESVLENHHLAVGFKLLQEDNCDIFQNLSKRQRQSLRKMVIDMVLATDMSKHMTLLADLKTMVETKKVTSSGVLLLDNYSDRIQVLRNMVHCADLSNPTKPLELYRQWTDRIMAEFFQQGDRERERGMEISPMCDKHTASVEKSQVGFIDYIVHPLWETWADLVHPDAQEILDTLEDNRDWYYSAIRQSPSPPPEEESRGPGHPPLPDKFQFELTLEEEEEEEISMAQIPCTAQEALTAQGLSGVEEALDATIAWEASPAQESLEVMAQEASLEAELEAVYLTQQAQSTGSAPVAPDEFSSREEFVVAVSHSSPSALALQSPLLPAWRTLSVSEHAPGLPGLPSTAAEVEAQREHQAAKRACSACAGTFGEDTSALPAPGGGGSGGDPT
PROPERTY LABEL: IC50 (nM)

[
  {
    "COMPOUND": "CN(Cc1ccccc1)c1ccc(C(Cc2ccncc2)c2ccc(OC(F)F)c(OC(F)F)c2)cn1 (racemic) [Example 54]",
    "PROPERTY LABEL": "IC50",
    "VALUE MEASURED": 2.84
  },
  {
    "COMPOUND": "O=C(c1ccc(F)cc1)N(C(=O)c1ccc(F)cc1)c1ccc(C(Cc2cc[n+]([O-])cc2)c2ccc(OC(F)F)c(OC(F)F)c2)cn1 (single isomer, unassigned; enantiomer-2) [Example 99]",
    "PROPERTY LABEL": "IC50",
    "VALUE MEASURED": 0.84
  }
]

P = COc1ccc(N(C)c2ccc(C(Cc3cc[n+]([O-])cc3)c3ccc(OC(F)F)c(OC(F)F)c3)cn2)cc1 (racemic) [Example 69]
Q = FC(F)Oc1ccc(C(Cc2ccncc2)c2ccc(NCc3ccccc3)nc2)cc1OC(F)F (racemic) [Example 1]
R = CC(C)(Nc1ccc(C(Cc2cc[n+]([O-])cc2)c2ccc(OC(F)F)c(OC(F)F)c2)cn1)c1ccccc1 (racemic) [Example 11]
Challenge: Ordering criterion: IC50; begin with the maximum. To answer, write out the labels according to the requested order.
Response given: P, R, Q
